experimental.details: Hygroscopicity study (storage at 90% RH, weighing and PXRD after five days)
Format: physicochemical
protocol.conditions: after five days at 90% RH
metric: PXRD (compared to intact bulk)

>>> assay_value("Cc1ccc(S(=O)(=O)O)cc1.O=C(O)C1(CN2CCC(COc3noc4cccc(OCC(F)(F)F)c34)CC2)CCOCC1 [pTSA-salt]")
"same"
>>> assay_value("Br.O=C(O)C1(CN2CCC(COc3noc4cccc(OCC(F)(F)F)c34)CC2)CCOCC1 [HBr-salt]")
"same"
>>> assay_value("Cl.O=C(O)C1(CN2CCC(COc3noc4cccc(OCC(F)(F)F)c34)CC2)CCOCC1 [HCl-salt]")
"same"

###

experimental.details: Solid-state stability study under 40° C./75% RH (HPLC remaining % and purity)
Assay type: physicochemical
protocol.conditions: 40° C./75% RH for 6 month, counterion area excluded
metric: Purity (Area %) Main peak
A number alone suffices; assume Area %.

Examples with their reported Purity (Area %) Main peak follow.
>>> assay_value("Cc1ccc(S(=O)(=O)O)cc1.O=C(O)C1(CN2CCC(COc3noc4cccc(OCC(F)(F)F)c34)CC2)CCOCC1 [pTSA-salt]")
99.7
>>> assay_value("Br.O=C(O)C1(CN2CCC(COc3noc4cccc(OCC(F)(F)F)c34)CC2)CCOCC1 [HBr-salt]")
99.9
>>> assay_value("O=C(O)C1(CN2CCC(COc3noc4cccc(OCC(F)(F)F)c34)CC2)CCOCC1 [Free form]")
95.6

Continue with the next compound.
Q: Reported Purity (Area %) Main peak for Cl.O=C(O)C1(CN2CCC(COc3noc4cccc(OCC(F)(F)F)c34)CC2)CCOCC1 [HCl-salt] : what is it?
A: 98.8

###

experimental.details: Solid-state stability study under 40° C./75% RH (HPLC remaining % and purity)
Type: physicochemical
protocol.conditions: 40° C./75% RH for 6 month
Assay Remaining % reference
A number alone suffices; assume %.

Examples with their reported Assay Remaining % follow.
>>> assay_value("O=C(O)C1(CN2CCC(COc3noc4cccc(OCC(F)(F)F)c34)CC2)CCOCC1 [Free form]")
87
>>> assay_value("Cl.O=C(O)C1(CN2CCC(COc3noc4cccc(OCC(F)(F)F)c34)CC2)CCOCC1 [HCl-salt]")
97
>>> assay_value("Cc1ccc(S(=O)(=O)O)cc1.O=C(O)C1(CN2CCC(COc3noc4cccc(OCC(F)(F)F)c34)CC2)CCOCC1 [pTSA-salt]")
98

Continue with the next molecule.
Q: Reported Assay Remaining % for Br.O=C(O)C1(CN2CCC(COc3noc4cccc(OCC(F)(F)F)c34)CC2)CCOCC1 [HBr-salt] : what is it?
A: 99

Data credit: patent US9988370B2
